Molecular target: Epidermal growth factor receptor (Homo sapiens, UniProt P00533, L858R/T790M)
Sequence (P00533 25-1210 T790M/L858R limits assumed): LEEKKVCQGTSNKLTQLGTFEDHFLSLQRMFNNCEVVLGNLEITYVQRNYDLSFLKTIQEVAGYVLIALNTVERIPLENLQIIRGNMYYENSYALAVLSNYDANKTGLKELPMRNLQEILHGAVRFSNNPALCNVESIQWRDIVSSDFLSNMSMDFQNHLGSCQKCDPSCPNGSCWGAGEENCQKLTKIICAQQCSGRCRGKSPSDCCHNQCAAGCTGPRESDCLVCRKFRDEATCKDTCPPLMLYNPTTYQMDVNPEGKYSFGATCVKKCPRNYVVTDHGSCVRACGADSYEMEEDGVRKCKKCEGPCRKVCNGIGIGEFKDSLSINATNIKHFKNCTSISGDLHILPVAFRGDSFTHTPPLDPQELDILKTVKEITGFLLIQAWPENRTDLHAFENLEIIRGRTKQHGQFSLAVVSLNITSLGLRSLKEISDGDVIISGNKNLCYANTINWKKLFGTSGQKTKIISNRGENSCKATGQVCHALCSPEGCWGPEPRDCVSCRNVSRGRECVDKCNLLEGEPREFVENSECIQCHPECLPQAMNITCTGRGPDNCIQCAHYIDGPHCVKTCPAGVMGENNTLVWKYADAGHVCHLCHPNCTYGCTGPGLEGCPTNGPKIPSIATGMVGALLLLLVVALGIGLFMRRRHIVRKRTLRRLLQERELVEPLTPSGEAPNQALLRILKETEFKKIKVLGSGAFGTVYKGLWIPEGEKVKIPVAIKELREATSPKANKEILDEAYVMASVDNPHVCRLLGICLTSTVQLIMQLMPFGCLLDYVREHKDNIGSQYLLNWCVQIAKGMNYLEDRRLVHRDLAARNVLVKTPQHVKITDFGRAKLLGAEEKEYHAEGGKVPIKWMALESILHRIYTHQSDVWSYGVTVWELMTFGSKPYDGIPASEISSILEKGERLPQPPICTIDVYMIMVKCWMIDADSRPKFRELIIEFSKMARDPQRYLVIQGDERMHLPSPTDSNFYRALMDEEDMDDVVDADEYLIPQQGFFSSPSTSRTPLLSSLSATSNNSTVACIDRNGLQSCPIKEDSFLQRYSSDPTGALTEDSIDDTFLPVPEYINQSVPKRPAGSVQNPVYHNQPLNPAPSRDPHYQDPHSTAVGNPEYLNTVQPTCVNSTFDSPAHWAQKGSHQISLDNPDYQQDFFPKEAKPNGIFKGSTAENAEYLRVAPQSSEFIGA
Listing of entries alongside the reported IC50.
Field format: number, assumed nM, no unit text.

Worked set:
{"smiles-str": "C=CC(=O)Nc1cc(Nc2nccc(NC(=O)c3ccc(OC)c(OC)c3)n2)c(OC)cc1N(C)C", "measure-unit": "nM", "IC50": 40.2}
{"smiles-str": "C=CC(=O)Nc1cc(Nc2nccc(NC(=O)c3ccc(OC)c(OC)c3)n2)c(OC)cc1N1CCN(C)CC1", "measure-unit": "nM", "IC50": 12.6}
{"smiles-str": "C=CC(=O)Nc1cc(Nc2nccc(NC(=O)c3cccc(OC)c3)n2)c(OC)cc1N1CCC(C(N)=O)CC1", "measure-unit": "nM", "IC50": 32.6}

Shifting focus to the molecule that follows.
Q: Specify IC50 for `C=CC(=O)Nc1cc(Nc2nccc(NC(=O)c3ccc(C(F)(F)F)cc3)n2)c(OC)cc1N1CCC(C(N)=O)CC1` , system Epidermal growth factor receptor (Homo sapiens, UniProt P00533, L858R/T790M).
Result: 65.3

---

Tested on: A549
Assay: cells
Type: functional, cell-based
Details: Homo sapiens, A549, 72 h
Description: Antiproliferative activity against human A549 cells after 72 hrs by MTT assay
reported-metric: pIC50
// field semantics: pIC50 = negative decimal log of concentration (mol/L)

Q: Give recorded pIC50. `C=CC(=O)Nc1cc(Nc2nccc(NC(=O)c3ccc(C(F)(F)F)cc3)n2)c(OC)cc1N(C)CCN(C)C`
Result: 5.01

---

Listing of entries alongside the reported pIC50.
Test system: ASPC1
Assay: cells
Type: functional, cell-based
Conditions: Homo sapiens, ASPC1, 72 h
Description: Antiproliferative activity against human Aspc-1 cells after 72 hrs by MTT assay
// field semantics: pIC50 = negative decimal log of concentration (mol/L)

Q: Give recorded pIC50. C=CC(=O)Nc1cc(Nc2nccc(-c3cn(C)c4ccccc34)n2)c(OC)cc1N(C)CCN(C)C [OSIMERTINIB]
Result: 5.40

Q: Give recorded pIC50. `C=CC(=O)Nc1cc(Nc2nccc(NC(=O)c3ccccc3)n2)c(OC)cc1N(C)CCN(C)C`
Result: 5.45

Q: Give recorded pIC50. `C=CC(=O)Nc1cc(Nc2nccc(NC(=O)c3cccc4ccccc34)n2)c(OC)cc1N1CCN(C)CC1`
Result: 5.18

Q: Give recorded pIC50. `C=CC(=O)Nc1cc(Nc2nccc(NC(=O)c3cccc(OC)c3)n2)c(OC)cc1N(C)CCN(C)C`
Result: 5.47

---

Molecular target: UniProt P00533
reported-metric: pIC50
// field semantics: pIC50 = negative decimal log of concentration (mol/L)

{"smiles-str": "C=CC(=O)Nc1cc(Nc2nccc(NC(=O)c3cccc(OC)c3)n2)c(OC)cc1N(C)CCN(C)C", "pIC50": 6.81}
{"smiles-str": "C=CC(=O)Nc1cc(Nc2nccc(NC(=O)c3ccccc3)n2)c(OC)cc1N1CCC(C(N)=O)CC1", "pIC50": 6.74}

Q: Specify pIC50 for `C=CC(=O)Nc1cc(Nc2nccc(NC(=O)c3ccc(C(F)(F)F)cc3)n2)c(OC)cc1N1CCC(C(N)=O)CC1` , system UniProt P00533.
Result: 6.90

Q: Specify pIC50 for `C=CC(=O)Nc1cc(Nc2nccc(NC(=O)c3ccccc3)n2)c(OC)cc1N(C)CCN(C)C` , system UniProt P00533.
Result: 6.50

Q: Specify pIC50 for `C=CC(=O)Nc1cc(Nc2nccc(NC(=O)c3ccc(OC)c(OC)c3)n2)c(OC)cc1N1CCC(C(N)=O)CC1` , system UniProt P00533.
Result: 6.89

---

Tested on: ASPC1
Assay: cells
Assay type: functional, cell-based
Details: Homo sapiens, ASPC1, 72 h
Listing of entries alongside the reported IC50.

Worked set:
{"smiles-str": "C=CC(=O)Nc1cc(Nc2nccc(NC(=O)c3cccc(OC)c3)n2)c(OC)cc1N1CCN(C)CC1", "result": "> 10 µM"}
{"smiles-str": "C=CC(=O)Nc1cc(Nc2nccc(NC(=O)c3ccc(OC)c(OC)c3)n2)c(OC)cc1N(C)CCN(C)C", "result": "3.32 µM"}

Shifting focus to the molecule that follows.
Q: Specify IC50 for `C=CC(=O)Nc1cc(Nc2nccc(NC(=O)c3ccc(C(F)(F)F)cc3)n2)c(OC)cc1N(C)CCN(C)C` , system ASPC1.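 Further: growth inhibition of the cells quantified with an MTT readout.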
Result: 8.03 µM

---

Tested on: A549
Assay: cells
Type: functional, cell-based
Conditions: Homo sapiens, A549, 72 h
reported-metric: pIC50
// field semantics: pIC50 = negative decimal log of concentration (mol/L)

Worked set:
{"molecule": "C=CC(=O)Nc1cc(Nc2nccc(NC(=O)c3cccc(OC)c3)n2)c(OC)cc1N(C)CCN(C)C", "reported-metric": "pIC50", "result-number": 5.52}
{"molecule": "C=CC(=O)Nc1cc(Nc2nccc(NC(=O)c3ccc(OC)c(OC)c3)n2)c(OC)cc1N1CCC(C(N)=O)CC1", "reported-metric": "pIC50", "result-number": 5.35}
{"molecule": "C=CC(=O)Nc1cc(Nc2nccc(NC(=O)c3ccccc3)n2)c(OC)cc1N(C)CCN(C)C", "reported-metric": "pIC50", "result-number": 5.76}
{"molecule": "C=CC(=O)Nc1cc(Nc2nccc(NC(=O)c3ccc(OC)c(OC)c3)n2)c(OC)cc1N1CCN(C)CC1", "reported-metric": "pIC50", "result-number": 5.17}
{"molecule": "C=CC(=O)Nc1cc(Nc2nccc(NC(=O)c3cccc4ccccc34)n2)c(OC)cc1N1CCN(C)CC1", "reported-metric": "pIC50", "result-number": 5.17}

Q: Specify pIC50 for C=CC(=O)Nc1cc(Nc2nccc(-c3cn(C)c4ccccc34)n2)c(OC)cc1N(C)CCN(C)C [OSIMERTINIB] , system A549.
Result: 5.49

Q: Specify pIC50 for `C=CC(=O)Nc1cc(Nc2nccc(NC(=O)c3ccccc3)n2)c(OC)cc1N1CCN(C)CC1` , system A549.
Result: 5.22

Q: Specify pIC50 for `C=CC(=O)Nc1cc(Nc2nccc(NC(=O)c3cccc(OC)c3)n2)c(OC)cc1N1CCN(C)CC1` , system A549.
Result: 5.19

Q: Specify pIC50 for `C=CC(=O)Nc1cc(Nc2nccc(NC(=O)c3ccc(C(F)(F)F)cc3)n2)c(OC)cc1N1CCN(C)CC1` , system A549.
Result: 5.10

Q: Specify pIC50 for `C=CC(=O)Nc1cc(Nc2nccc(NC(=O)c3ccc(OC)c(OC)c3)n2)c(OC)cc1N(C)CCN(C)C` , system A549.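 Further: antiproliferative effect read out by MTT assay.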
Result: 5.40

---

Target: Epidermal growth factor receptor (Homo sapiens, UniProt P00533)
Sequence (P00533 whole entry): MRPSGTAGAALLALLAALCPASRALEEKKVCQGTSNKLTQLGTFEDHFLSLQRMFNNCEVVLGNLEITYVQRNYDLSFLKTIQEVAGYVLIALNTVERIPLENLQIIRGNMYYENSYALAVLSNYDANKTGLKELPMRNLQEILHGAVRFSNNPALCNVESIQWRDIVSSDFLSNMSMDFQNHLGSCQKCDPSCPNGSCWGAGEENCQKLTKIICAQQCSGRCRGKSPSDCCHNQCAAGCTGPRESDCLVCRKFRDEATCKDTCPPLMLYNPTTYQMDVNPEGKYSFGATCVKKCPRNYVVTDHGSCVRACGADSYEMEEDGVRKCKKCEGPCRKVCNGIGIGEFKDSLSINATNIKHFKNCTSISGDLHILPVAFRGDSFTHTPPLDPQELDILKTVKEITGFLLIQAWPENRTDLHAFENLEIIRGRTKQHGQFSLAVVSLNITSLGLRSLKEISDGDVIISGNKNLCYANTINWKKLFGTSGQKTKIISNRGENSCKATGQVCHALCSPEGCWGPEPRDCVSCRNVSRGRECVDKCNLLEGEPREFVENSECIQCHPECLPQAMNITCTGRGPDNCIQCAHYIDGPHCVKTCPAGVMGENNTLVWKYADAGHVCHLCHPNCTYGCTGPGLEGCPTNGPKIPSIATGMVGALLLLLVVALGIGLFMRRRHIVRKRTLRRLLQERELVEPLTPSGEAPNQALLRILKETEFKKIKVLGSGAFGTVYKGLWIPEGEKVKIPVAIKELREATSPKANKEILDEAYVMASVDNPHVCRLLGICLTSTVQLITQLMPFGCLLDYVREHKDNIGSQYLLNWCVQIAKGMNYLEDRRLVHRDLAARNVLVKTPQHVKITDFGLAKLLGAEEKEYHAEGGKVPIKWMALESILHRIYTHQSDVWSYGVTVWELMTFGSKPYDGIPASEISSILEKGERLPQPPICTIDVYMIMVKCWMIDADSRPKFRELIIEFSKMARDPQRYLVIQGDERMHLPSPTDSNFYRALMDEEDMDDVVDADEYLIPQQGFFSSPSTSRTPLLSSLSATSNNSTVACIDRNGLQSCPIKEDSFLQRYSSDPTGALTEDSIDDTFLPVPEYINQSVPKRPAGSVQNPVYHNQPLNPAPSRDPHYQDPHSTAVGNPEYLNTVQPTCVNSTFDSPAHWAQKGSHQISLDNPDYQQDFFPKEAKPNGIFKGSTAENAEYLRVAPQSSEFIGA
reported-metric: IC50 (nM)
Field format: number, assumed nM, no unit text.

Worked set:
{"smiles-str": "C=CC(=O)Nc1cc(Nc2nccc(NC(=O)c3ccc(OC)c(OC)c3)n2)c(OC)cc1N(C)C", "target-or-system": "Epidermal growth factor receptor (Homo sapiens, UniProt P00533)", "IC50 (nM)": 149}
{"smiles-str": "C=CC(=O)Nc1cc(Nc2nccc(NC(=O)c3cccc4ccccc34)n2)c(OC)cc1N1CCN(C)CC1", "target-or-system": "Epidermal growth factor receptor (Homo sapiens, UniProt P00533)", "IC50 (nM)": 134}
{"smiles-str": "C=CC(=O)Nc1cc(Nc2nccc(NC(=O)c3cccc(OC)c3)n2)c(OC)cc1N1CCN(C)CC1", "target-or-system": "Epidermal growth factor receptor (Homo sapiens, UniProt P00533)", "IC50 (nM)": 147}
{"smiles-str": "C=CC(=O)Nc1cc(Nc2nccc(NC(=O)c3ccc(C(F)(F)F)cc3)n2)c(OC)cc1N(C)CCN(C)C", "target-or-system": "Epidermal growth factor receptor (Homo sapiens, UniProt P00533)", "IC50 (nM)": 109}

Q: Specify IC50 for `C=CC(=O)Nc1cc(Nc2nccc(NC(=O)c3ccc(OC)c(OC)c3)n2)c(OC)cc1N(C)CCN(C)C` , system Epidermal growth factor receptor (Homo sapiens, UniProt P00533).
Result: 187
